The values you see were collected from the RNAGym collection of RNA variant scans (doi:10.7554/elife.80360).

B1: HDV Ribozyme (parent)
chain: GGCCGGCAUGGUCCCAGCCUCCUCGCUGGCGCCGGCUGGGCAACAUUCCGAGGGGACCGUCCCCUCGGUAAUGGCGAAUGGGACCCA

# Variants of: B1
# ASSAY_METHOD_TEXT: self-cleavage, relative activity (ratio to wild type); higher = more cleavage; co-transcriptional
Parameter threshold = 0.4. Response is Criterion met when self-cleavage meets or exceeds it, else Criterion not met.

>  <MUTANT_DESIGNATION>
G1U U37C

>  <CLASS_ASSIGNMENT>
Criterion met

$$$$
>  <MUTANT_DESIGNATION>
G29U A77G

>  <CLASS_ASSIGNMENT>
Criterion not met

$$$$
>  <MUTANT_DESIGNATION>
C30A G81C

>  <CLASS_ASSIGNMENT>
Criterion not met

$$$$

Q: Does self-cleavage meet or surpass 0.4 for G35A U72G ?
A: Criterion not met

Q: Does self-cleavage meet or surpass 0.4 for C36U G50C ?
A: Criterion met

Q: Does self-cleavage meet or surpass 0.4 for G28A A83U ?
A: Criterion not met

Q: Does self-cleavage meet or surpass 0.4 for G34A A87C ?
A: Criterion not met

Q: Does self-cleavage meet or surpass 0.4 for G53A G80A ?
A: Criterion not met

Q: Does self-cleavage meet or surpass 0.4 for A43C A77G ?
A: Criterion not met

Q: Does self-cleavage meet or surpass 0.4 for G67C A78U ?
A: Criterion not met

Q: Does self-cleavage meet or surpass 0.4 for C3A U27G ?
A: Criterion not met

Q: Does self-cleavage meet or surpass 0.4 for G11U G39C ?
A: Criterion not met
